Values from patent US11919902B2

Biological target: GST tagged PIP4KtypeIIA (Homo sapiens, UniProt P48426)
Sequence (P48426 1-406): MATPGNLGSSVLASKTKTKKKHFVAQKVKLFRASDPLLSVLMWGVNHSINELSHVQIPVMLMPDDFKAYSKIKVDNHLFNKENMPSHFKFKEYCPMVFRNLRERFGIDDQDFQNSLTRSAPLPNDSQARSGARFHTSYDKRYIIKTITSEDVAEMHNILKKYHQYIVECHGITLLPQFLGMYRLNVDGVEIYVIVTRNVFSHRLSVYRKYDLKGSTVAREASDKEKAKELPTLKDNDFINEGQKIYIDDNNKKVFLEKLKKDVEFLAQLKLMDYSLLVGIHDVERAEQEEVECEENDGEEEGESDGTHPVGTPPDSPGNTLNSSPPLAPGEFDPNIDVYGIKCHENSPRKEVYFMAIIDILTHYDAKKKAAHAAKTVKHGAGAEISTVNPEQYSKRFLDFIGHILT
property: IC50

INSERT INTO assay_data (smiles_string, property, value_measured) VALUES
  ('CC(C)OC(=O)c1cc2c(-c3cncc(-c4ccc(N5CCCC5=O)cc4)c3)ccnc2[nH]1', 'IC50', '100 to 1000 nM'),
  ('CN(C)C(=O)c1ccc(-c2cncc(-c3ccnc(C(=O)N(C)C)c3)c2)cc1', 'IC50', '> 5000 nM'),
  ('CN(C)C(=O)c1ccc(-c2cc(-c3cc(Nc4cccc(NC(=O)c5cccc(N)c5)c4)ncn3)cnc2N)nc1', 'IC50', '1000 to 2500 nM'),
  ('COc1cnc2[nH]ccc2c1-c1cncc(-c2ccc(N3CCCC3=O)cc2)c1', 'IC50', '100 to 1000 nM'),
  ('CNC(=O)c1cnc2c(c1)c(-c1cncc(-c3ccc(N4CCCC4=O)cc3)c1)cn2C', 'IC50', '100 to 1000 nM'),
  ('COCCNC(=O)c1cc2c(-c3cncc(-c4ccc(N5CCCC5=O)cc4)c3)ccnc2o1', 'IC50', '100 to 1000 nM'),
  ('O=C(Nc1ccc(-c2cncc(-c3ccnc4[nH]ncc34)c2)cc1)C(=O)N1C2CCC1CC2', 'IC50', '100 to 1000 nM'),
  ('CN(C)C(=O)c1ccc(-c2cc(-c3cccnc3N)cnc2N)nc1', 'IC50', '> 5000 nM'),
  ('Cc1c(-c2ccc(N3CCCC3=O)cc2)cncc1-c1ccnc2[nH]c(C(=O)N(C)C)cc12', 'IC50', '100 to 1000 nM'),
  ('O=C(NCCc1cnccn1)c1cc2c(-c3cncc(-c4ccc(N5CCCC5=O)cc4)c3)ccnc2[nH]1', 'IC50', '100 to 1000 nM');

----------
Molecular target: GST tagged PIP4KtypeIIB (Homo sapiens, UniProt P78356)
Sequence (P78356 1-416): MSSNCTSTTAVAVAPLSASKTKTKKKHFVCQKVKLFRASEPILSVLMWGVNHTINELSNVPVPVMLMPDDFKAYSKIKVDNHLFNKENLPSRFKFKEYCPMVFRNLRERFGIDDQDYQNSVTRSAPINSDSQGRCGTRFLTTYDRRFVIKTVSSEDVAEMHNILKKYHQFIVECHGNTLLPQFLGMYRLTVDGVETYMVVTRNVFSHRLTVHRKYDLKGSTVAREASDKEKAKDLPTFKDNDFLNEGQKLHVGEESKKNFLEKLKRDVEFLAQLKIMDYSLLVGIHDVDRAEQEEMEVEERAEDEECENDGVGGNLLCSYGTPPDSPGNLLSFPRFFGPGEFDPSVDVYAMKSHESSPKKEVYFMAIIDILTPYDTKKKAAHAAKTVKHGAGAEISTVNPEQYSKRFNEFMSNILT
property: IC50

INSERT INTO assay_data (molecule, system_tested, value_measured) VALUES
  ('Cc1nc(-c2cncc(-c3ccc(N4CCCC4=O)cc3)c2)c2cn[nH]c2n1 [Example 225]', 'GST tagged PIP4KtypeIIB (Homo sapiens, UniProt P78356)', '100 to 1000 nM'),
  ('CN(C)C(=O)c1ccc(-c2cc(-c3ccnc4ncccc34)cnc2N)nc1 [Example 111]', 'GST tagged PIP4KtypeIIB (Homo sapiens, UniProt P78356)', '100 to 1000 nM'),
  ('CN(C)C(=O)c1ccc(-c2cc(-c3ccnc4[nH]c(C(=O)N5CCOCC5)cc34)cnc2N)nc1 [Example 128]', 'GST tagged PIP4KtypeIIB (Homo sapiens, UniProt P78356)', '100 to 1000 nM');
